Data credit: patent US20050209157A1

EXPERIMENT_DESCRIPTION: Solubility of peptides in sheep serum
Format: physicochemical
CONDITION_SET: sheep serum, […], 70% serum
No end group written: not given here.
VALUE_TYPE: Solubility

Would you please look over these solved cases?
# SUBSTANCE, OBSERVED_MEASUREMENT
measured = [
    ("FALALKALKKLLKKLKKLAKKAL-NH2 [P24]", "Precipitated"),
    ("VALALKALKKALKKLKKALKKAL-OH [P508]", "Soluble"),
    ("FAKKLAKKLKKLAKKLAK-NH2 [P69]", "Precipitated"),
    ("FALKALKKLKKALKKAL-NH2 [P153]", "Soluble"),
]

Moving on to another substance below.
Query string: Let me know recorded Solubility for KWKLFKKKTKLFKKFAKKLAKKL-OH [P81] , thanks.
Result string: Precipitated

* * *

EXPERIMENT_DESCRIPTION: in vitro
CONDITION_SET: human, WI38 normal lung fibroblast cells, WI38 LD50, MTT, 24 hours with peptide; normal fibroblast line
No end group written: not given here.
VALUE_TYPE: CC50 at 24 h (µg/mL)
Respond numerically; units are µg/mL and should not be typed.

# SUBSTANCE, CC50 at 24 h [µg/mL]
data = [
    ("FAKKLAKKLKKLAKKLAK-NH2 [Shiva 10 (1-18) AM]", 101),
]

Query string: Give a short answer stating reported CC50 at 24 h for FAKLLAKLAKKAA-NH2 [P93] .
Result string: 530

Query string: Look up and state reported CC50 at 24 h for FALALKALKKLKKALKKAL-NH2 [P27]
Result string: 520

Query string: Query CC50 at 24 h for FALLKALLKKAL-NH2 [Flak 961]
Result string: 270

* * *

Items are presented alongside their recorded viability at 50 µM.
EXPERIMENT_DESCRIPTION: Synergy of Shiva-1 and lysozyme, percent viability;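 further: Lysozyme at ten times the molar concentration of the peptide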
Type: cell-based, Staphylococcus intermedius
CONDITION_SET: S. intermedius 19930
No end group written: not given here.
Response body: numeric value in %, unit text excluded.

# SUBSTANCE, viability at 50 µM / %
rows = [
    ("MPRWRLFRRIDRVGKQIKQGILRAGPAIALVGDARAVG [Shiva-1]", 0),
]

Query string: Given the substance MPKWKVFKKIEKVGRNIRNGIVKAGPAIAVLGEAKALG-NH2 (C-terminus assumed) [SB-37] , write its reported viability at 50 µM.
Result string: 0

* * *

System: H1299
EXPERIMENT_DESCRIPTION: Anti-cancer assay, MTT, LD50
Type: cell-based
CONDITION_SET: 24 hours with peptide, lung large cell carcinoma
Text: Numbers are LD50 values (μg/mL).
Entries and their measured H1299 LD50 follow.
Report the figure in µg/mL without appending any unit label.

Examples with answers:
# COMPOUND, H1299 LD50 (µg/mL)
measured = [
    ("CC(C)C[C@H](NC(=O)[C@H](C)NC(=O)[C@H](CC(C)C)NC(=O)[C@H](CCCCN)NC(=O)[C@H](C)NC(=O)[C@H](CC(C)C)NC(=O)[C@H](CCCCN)NC(=O)[C@H](CCCCN)NC(=O)[C@H](C)NC(=O)[C@H](CC(C)C)NC(=O)[C@H](CCCCN)NC(=O)[C@H](C)NC(=O)[C@H](CC(C)C)NC(=O)[C@H](CCCCN)NC(=O)[C@H](CCCCN)NC(=O)[C@H](C)NC(=O)[C@@H](N)Cc1ccccc1)C(=O)O", 127),
    ("CC[C@H](C)[C@H](N)C(=O)N[C@@H](CC(C)C)C(=O)N1CCC[C@H]1C(=O)N[C@@H](Cc1c[nH]c2ccccc12)C(=O)N[C@@H](CCCCN)C(=O)N[C@@H](Cc1c[nH]c2ccccc12)C(=O)N1CCC[C@H]1C(=O)N[C@@H](Cc1c[nH]c2ccccc12)C(=O)N[C@@H](Cc1c[nH]c2ccccc12)C(=O)N1CCC[C@H]1C(=O)N[C@@H](Cc1c[nH]c2ccccc12)C(=O)N[C@@H](CCCNC(=N)N)C(=O)N[C@@H](CCCNC(=N)N)C(N)=O [P63, reference compound]", 270),
    ("CC(C)C[C@H](NC(=O)[C@H](C)NC(=O)[C@H](CC(C)C)NC(=O)[C@H](CCCCN)NC(=O)[C@H](C)NC(=O)[C@H](CC(C)C)NC(=O)[C@H](CCCCN)NC(=O)[C@H](CCCCN)NC(=O)[C@H](C)NC(=O)[C@H](CC(C)C)NC(=O)[C@H](CCCCN)NC(=O)[C@H](C)NC(=O)[C@H](CC(C)C)NC(=O)[C@H](CCCCN)NC(=O)[C@H](CCCCN)NC(=O)[C@H](C)NC(=O)[C@@H](N)Cc1ccccc1)C(N)=O", 16),
]

Moving on to another compound below.
Query string: Write down H1299 LD50 measured for item CC(C)C[C@H](NC(=O)[C@H](C)NC(=O)[C@H](CC(C)C)NC(=O)[C@H](C)NC(=O)[C@H](CC(C)C)NC(=O)[C@H](CCCCN)NC(=O)[C@H](C)NC(=O)[C@H](CC(C)C)NC(=O)[C@H](CCCCN)NC(=O)[C@H](CCCCN)NC(=O)[C@H](C)NC(=O)[C@H](CC(C)C)NC(=O)[C@H](CCCCN)NC(=O)[C@H](C)NC(=O)[C@H](CC(C)C)NC(=O)[C@H](CCCCN)NC(=O)[C@H](CCCCN)NC(=O)[C@H](C)NC(=O)[C@@H](N)Cc1ccccc1)C(N)=O
Result string: 57

* * *

Recorded measurements of viability at 50 µM, one per entry
EXPERIMENT_DESCRIPTION: Synergy of Shiva-1 and lysozyme, percent viability;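 further: Lysozyme at ten times the molar concentration of the peptide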
Assay type: cell-based, Staphylococcus intermedius
CONDITION_SET: S. intermedius 20034
No end group written: not given here.
Kindly provide the numeric value in % only, without the unit symbol.

# SUBSTANCE, OBSERVED_MEASUREMENT
rows = [
    ("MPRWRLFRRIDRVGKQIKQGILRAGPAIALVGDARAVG [Shiva-1]", 0),
]

Let's switch to this substance now.
Query string: Item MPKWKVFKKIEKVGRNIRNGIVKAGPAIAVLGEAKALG-NH2 (C-terminus assumed) [SB-37] : provide viability at 50 µM
Result string: 0

* * *

System: WI38
CONDITION_SET: MTT, 24 hours with peptide; normal fibroblast line
Reported WI38 LD50 values follow for various molecules
# number only, unit µg/mL dropped from output

# MOLECULE, TEST_TARGET, VALUE_UNIT, WI38 LD50
records = [
    ("CC(C)C[C@H](NC(=O)[C@H](C)NC(=O)[C@H](CC(C)C)NC(=O)[C@H](CCCCN)NC(=O)[C@H](C)NC(=O)[C@H](CC(C)C)NC(=O)[C@H](CCCCN)NC(=O)[C@H](CCCCN)NC(=O)[C@H](C)NC(=O)[C@H](CC(C)C)NC(=O)[C@H](CCCCN)NC(=O)[C@H](C)NC(=O)[C@H](CC(C)C)NC(=O)[C@H](CCCCN)NC(=O)[C@H](CCCCN)NC(=O)[C@H](C)NC(=O)[C@@H](N)Cc1ccccc1)C(=O)O [P61]", "WI38", "µg/mL", 93),
    ("CC(C)C[C@H](NC(=O)[C@H](C)NC(=O)[C@H](CC(C)C)NC(=O)[C@H](CCCCN)NC(=O)[C@H](C)NC(=O)[C@H](CC(C)C)NC(=O)[C@H](CCCCN)NC(=O)[C@H](CCCCN)NC(=O)[C@H](C)NC(=O)[C@H](CC(C)C)NC(=O)[C@H](CCCCN)NC(=O)[C@H](C)NC(=O)[C@H](CC(C)C)NC(=O)[C@H](CCCCN)NC(=O)[C@H](CCCCN)NC(=O)[C@H](C)NC(=O)[C@@H](N)Cc1ccccc1)C(N)=O [P35]", "WI38", "µg/mL", 8),
]

Let us examine a further case.
Query string: State, in one line, measured WI38 LD50 of CC(C)C[C@H](NC(=O)[C@H](C)NC(=O)[C@H](CC(C)C)NC(=O)[C@H](C)NC(=O)[C@H](CC(C)C)NC(=O)[C@H](CCCCN)NC(=O)[C@H](C)NC(=O)[C@H](CC(C)C)NC(=O)[C@H](CCCCN)NC(=O)[C@H](CCCCN)NC(=O)[C@H](C)NC(=O)[C@H](CC(C)C)NC(=O)[C@H](CCCCN)NC(=O)[C@H](C)NC(=O)[C@H](CC(C)C)NC(=O)[C@H](CCCCN)NC(=O)[C@H](CCCCN)NC(=O)[C@H](C)NC(=O)[C@@H](N)Cc1ccccc1)C(N)=O [P36]
Result string: 19

* * *

EXPERIMENT_DESCRIPTION: in vitro
Format: cell-based, human
CONDITION_SET: human, human red blood cells, pH 7, hemolytic assay, concentration at 50% hemolysis, 1 hour at 37° C.; read-out: LD50
No end group written: not given here.
Hi! Could you tag entries with HC50 at 1 h below 600 µg/mL as MET, and those at or above as NOT MET? Much appreciated.

Here are 5 substances together with their reported answers.
# SUBSTANCE, ASSIGNED_CATEGORY
records = [
    ("FAKLLAKALKKFL-NH2 [P118]", "NOT MET"),
    ("FAKLLAKALKKAL-NH2 [P102, FAKLLAKALKKAL-NH2]", "MET"),
    ("FAKLLAKFLKKAL-NH2 [P113]", "NOT MET"),
    ("GIGKFLHAAKKFAKAFVAEIMNS-NH2 [P300, reference compound]", "MET"),
    ("VAKKLAKLAKKLLAL-NH2 [P505, VAKKLAKLAKKLLAL-NH2]", "NOT MET"),
]

Query string: Please indicate whether the reported HC50 at 1 h of FAKKLAKKLKKLAKLALAK-NH2 [P41] is strictly below 600 µg/mL.
Result string: MET

Query string: Would you kindly verify if HC50 at 1 h of KWKLAKKALALL-NH2 [P142] is strictly less than 600 µg/mL?
Result string: NOT MET

Query string: Find out if reported HC50 at 1 h for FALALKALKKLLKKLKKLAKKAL-NH2 [P24] is less than 600 µg/mL
Result string: MET

Query string: Decide: HC50 at 1 h of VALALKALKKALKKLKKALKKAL-OH [P508] strictly below 600 µg/mL?
Result string: MET

Query string: Please indicate whether the reported HC50 at 1 h of FAKFLAKFLKKAL-NH2 [P111, FAKFLAKFLKKAL-NH2] is strictly below 600 µg/mL.
Result string: MET

Query string: Item FAKLLAKALKKFAL-NH2 [P119, FAKLLAKALKKFAL-NH2] : HC50 at 1 h beneath 600 µg/mL, strictly?
Result string: MET

Query string: Quick check: HC50 at 1 h of FAVGLRAIKRALKKLRRGVRKVAKDL-NH2 [P157, reference compound] under 600 µg/mL?
Result string: NOT MET
